# CONDITION: 1 h
ATTRIBUTE_MEASURED: Adjuvant 1 h, emulsion stability, mL separation (mL)

MOLECULE	MEASURED_VALUE
C=CCCCCCCCC(=O)NCCC[N+](C)(C)[O-]	0
C[N+](C)([O-])CCCNC(=O)CCCCCCCCC(CCCCCCCC(=O)NCCC[N+](C)(C)[O-])S(=O)(=O)[O-].[Na+] (centres unmarked) [Sample C18-30, C18 DiDMAPA DiAO Sulfonate]	0
CN(C)CCCNC(=O)CCCCCCCCC(CCCCCCCC(=O)NCCCN(C)C)S(=O)(=O)[O-].[Na+] (centres unmarked) [Sample C18-68, C18 diDMAPA Amide Sulfonate]	0
CCCC(CCCCCCCC(=O)NCCC[N+](C)(C)[O-])S(=O)(=O)[O-].[Na+] (centres unmarked) [Sample C12-21, C12 DMAPA AO Sulfonate]	0
C[N+](C)([O-])CCCNC(=O)CCCCCCC/C=C/CCCCCCCC(=O)NCCC[N+](C)(C)[O-]	0
